B1: F1*; the commonest letter at each place (parent)
chain: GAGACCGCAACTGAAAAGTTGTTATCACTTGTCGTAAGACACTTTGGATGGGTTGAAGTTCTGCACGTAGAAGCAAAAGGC

variants of: B1; experiment: fraction ligated after 30 min (ligated reads / total reads); higher = more ligase activity; conditions: with F1*sub RNA substrate (template-directed ligation), 42 °C
Would you mind labelling by fraction ligated? At or over 0.8 is TRUE, under is FALSE.

>  <biosequence>
GAGACCGCAACTGAAAAGTTGTAATCACTTGTCGTAAGACACTTTGGTTGGGTTGAAGTTCTGCACGTAGAAGCAAAAGGC

>  <cat>
FALSE

$$$$
>  <biosequence>
GAGACCGCAACTGAAAAGTTGTTATCACTTGTAGTAAGACACTTTGGATGGGTTGCAGTTCTGCACGTAGAAGCAAAAGGC

>  <cat>
FALSE

$$$$
>  <biosequence>
GAGACCGCAACTGAAAAGTTGTTATCACTTGTCGTAAGCCACTTTGGATGGGTTGAAGTTCTGCACGTAGAAGCAAAAGGC

>  <cat>
TRUE

$$$$
>  <biosequence>
GAGACCGCAACTGAAAAGTTGTTATCACTTGTCCTAAGACAATTTGGATGGGTTGAAGTTCTGCACGTAGAAGCAAAAGGC

>  <cat>
TRUE

$$$$
>  <biosequence>
GAGACCGCAACTGAAAAGTTGTTATCACTTTTCGTAAGACACTTTGGATGGGTTTAAGTTCTGCACGTAGAAGCAAAAGGC

>  <cat>
FALSE

$$$$
